// provenance: patent US12723105

Molecular target: T1, human CD47 (R & D systems) (human, UniProt Q08722 19-139)
T1 construct: The Octet analyte was bought (R&D Systems); also called Human CD47 antigen; hCD47
Assay: BLI (Octet), His-tagged VHH on anti-penta-His tips, soluble human CD47
attribute_measured: kon (M⁻¹ s⁻¹)

Tell me its kon given A09-61 (VHH, not shown: C-terminal His-tag) VHH: QVQLVESGGGLVQAGGSLRLSCAASGYGVNSYALGWFRQAPGKEREFVAAISRSGGNINYADSAKGRFTISRDNFKNTTYLQMSSLKPEDTAVYYCAAHYLLLPSYISFASKMYNYWGQGTQVTVSS as the entry. 62100

Tell me its kon given hA09-10 (VHH, also called humanized A09-10; not shown: C-terminal His-tag) VHH: EVQLVESGGGLVQPGGSLRLSCAASGGGRTFSNYALGWFRQAPGKEREFVAAISRSGGNINYADSVKGRFTISRDNAKNTVYLQMSSLRAEDTAVYYCAAHYLLLPSYISTSTNMYNYWGQGTQVTVSS as the entry. 39800

a: A09-006 (VHH, also called A09-06; not shown: C-terminal His-tag) VHH: QVQLVESGGGLVQAGGSLRLSCAASGIRFFGSALGWFRQAPGKEREFVAAISRSGGNINYADSAKGRFTISRDNFKNTTYLQMSSLKPEDTAVYYCAAHYLLLPSYISTSTNMYNYWGQGTQVTVSS
b: A09-31 (VHH, not shown: C-terminal His-tag) VHH: QVQLVESGGGLVQAGGSLRLSCAASGYGVNSYALGWFRQAPGKEREFVAAISRSGGNINYADSAKGRFTISRDNFKNTTYLQMSSLKPEDTAVYYCAAHYLLLPSYIATAIKMYNYWGQGTQVTVSS
// compare measured kon, left a , right b , return larger # answer = label of selected item a
(a: 87000 M⁻¹ s⁻¹, b: 27500 M⁻¹ s⁻¹)
